Examples of compounds with documented Percent Effect follow.
Test system: Trypanosoma cruzi
Experiment: Trypanosoma cruzi phosphomannomutase and mannose-1-phosphate guanylyltransferase assay
Type: functional
Parameters: scale not given: direction of the effect not stated beside the values
Settings: 10 µM
property.measured: Percent Effect (%)

{"columns": ["compound", "property.measured", "assay.value"],
 "data": [
  ["COc1ccc(C(=O)Nc2cnn(CC(=O)NC3CCCC3)c2)c(O)c1", "Percent Effect", 3.77],
  ["CC(NC(=O)NCCCN(C)C)c1ccc2c(c1)CCC(=O)N2 (centres undefined)", "Percent Effect", 10.1],
  ["O=C(C1CCC1)N1CCC2(COCc3cnc(N4CCOCC4)nc32)C1 (centres undefined)", "Percent Effect", 0.772],
  ["Cc1noc(C)c1C(=O)N1CCCC1c1c(C)nn(C)c1Cl (centres undefined)", "Percent Effect", 5.38],
  ["C[S+]([O-])c1nncn1CC(=O)c1ccc2c(c1)CCO2 (centres undefined)", "Percent Effect", 3.23],
  ["CCC(=O)Nc1nnc(CCOc2cccc(OC)c2)s1", "Percent Effect", -3.54],
  ["CN(Cc1ccncc1)C(=O)Nc1cnn(CC2CCCO2)c1 (centres undefined)", "Percent Effect", -3.67],
  ["CC(CNC(=O)c1ccc(Cl)cc1I)N1CCCC1 (centres undefined)", "Percent Effect", 7.53],
  ["CCn1nc(C(C)C)cc1C(=O)NCCCOC", "Percent Effect", 6.51],
  ["COCCN1CC[C@@H](O)[C@@H]1Cc1ccccc1", "Percent Effect", -10.4],
  ["NC(=O)N1CCC2(CCN(Cc3cccc(F)c3)CC2)CC1", "Percent Effect", 1.67],
  ["CCOc1cc(C)nc(N2CCN(C(=O)c3ccnn3C)CC2)n1", "Percent Effect", 3.62],
  ["N#Cc1ccc(F)c(CN2CCCC2Cn2cnc3ccccc32)c1 (centres undefined)", "Percent Effect", -3.81],
  ["Cc1cc(=O)[nH]c(CCNC(=O)C(c2ccc(F)cc2)N(C)C)n1 (centres undefined)", "Percent Effect", -5.75]
]}
